Target: Smo D473H mutant (Homo sapiens, UniProt Q99835, D473H)
Sequence (Q99835 28-787 D473H): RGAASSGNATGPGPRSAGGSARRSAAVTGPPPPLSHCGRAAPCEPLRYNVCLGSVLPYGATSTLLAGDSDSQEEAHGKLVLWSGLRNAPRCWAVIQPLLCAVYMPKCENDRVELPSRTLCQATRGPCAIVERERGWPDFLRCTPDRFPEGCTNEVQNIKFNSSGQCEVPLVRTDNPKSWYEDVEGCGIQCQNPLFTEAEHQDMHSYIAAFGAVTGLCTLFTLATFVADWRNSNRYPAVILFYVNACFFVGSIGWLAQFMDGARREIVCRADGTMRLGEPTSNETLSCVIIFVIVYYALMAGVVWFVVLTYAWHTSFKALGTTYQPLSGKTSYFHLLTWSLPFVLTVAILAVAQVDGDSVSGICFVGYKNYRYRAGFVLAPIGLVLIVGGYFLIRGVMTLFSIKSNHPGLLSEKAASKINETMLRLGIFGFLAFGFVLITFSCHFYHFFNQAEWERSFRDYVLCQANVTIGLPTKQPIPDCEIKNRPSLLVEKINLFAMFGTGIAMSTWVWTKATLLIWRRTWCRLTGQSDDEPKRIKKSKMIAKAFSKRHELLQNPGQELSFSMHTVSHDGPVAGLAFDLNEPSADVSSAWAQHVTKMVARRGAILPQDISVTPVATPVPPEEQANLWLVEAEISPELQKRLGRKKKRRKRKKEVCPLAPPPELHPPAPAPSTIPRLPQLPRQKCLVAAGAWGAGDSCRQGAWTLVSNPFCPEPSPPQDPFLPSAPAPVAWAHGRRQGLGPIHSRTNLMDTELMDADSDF
Assay: Reporter assay of C3H10T1/2-Gli-Luc cells transfected with Smo D473H mutant, without SAG
Conditions: C3H10T1/2 cells transfected with pLPCX-SMO-D473H, no SAG, 48 hr; read-out: Inhibition of C3H10T1/2-Gli-Luc-Smo-D473H [IC50
REPORTED_PROPERTY: IC50

[in] Consider the compound shown here: CSc1cnc(Nc2ccc(C(=O)Nc3c(C)cccc3C)cc2)nc1-c1cccnc1F [Compound 6] What is its recorded IC50?
[out] < 100 nM

[in] Consider the compound shown here: CSc1cnc(Nc2ccc(C(=O)Nc3cc(CN4CCN(C)CC4)ccc3C)cc2)cc1-c1ccc(C(F)(F)F)cc1 [Compound 90] What is its recorded IC50?
[out] 100 to 1000 nM

[in] Consider the compound shown here: CCN(CC)Cc1ccc(C)c(NC(=O)c2ccc(Nc3ncc(SC)c(-c4ccc(F)cc4)n3)cc2)c1 [Compound 47] What is its recorded IC50?
[out] 100 to 1000 nM

[in] Consider the compound shown here: CSc1cnc(Nc2ccc(C(=O)Nc3cc(CN4CCOCC4)ccc3C)cc2F)nc1-c1ccc(OC(F)(F)F)cc1 [Compound 40] What is its recorded IC50?
[out] < 100 nM

[in] Consider the compound shown here: CCOc1cnc(Nc2ccc(C(=O)Nc3cc(CN(CC)CC)ccc3C)cc2)nc1-c1ccc(OC(F)(F)F)cc1 [Compound 74] What is its recorded IC50?
[out] 100 to 1000 nM

* * *

Molecular target: Smo wild type (Homo sapiens)
Sequence (Q99835 28-787): as the sequence (Q99835 28-787 D473H) above, with H446D counted along it
Test: Reporter assay of C3H10T1/2-Gli-Luc cells transfected with wild-type Smo, without SAG
Details: C3H10T1/2 cells transfected with pLPCX-SMO, no SAG, 48 hr; read-out: Inhibition of C3H10T1/2-Gli-Luc-Smo-WT [IC50
pIC50: −log10 of the molar value.
Reported pIC50 values for the following compounds.

| SMILES | REPORTED_PROPERTY | VALUE_REPORTED |
| --- | --- | --- |
| CSc1cnc(Nc2ccc(C(=O)Nc3cc(CN4CCN(C)CC4)ccc3C)cc2)cc1-c1ccc(OC(F)(F)F)cc1 | pIC50 | > 7.00 |
| CSc1cnc(Nc2ccc(C(=O)Nc3ccccc3C)cc2)nc1-c1ccccc1 | pIC50 | 6.00 to 7.00 |
| COc1cnc(Nc2ccc(C(=O)Nc3cc(CN4CCNCC4)ccc3C)cc2F)nc1-c1ccc(F)cc1 | pIC50 | 6.00 to 7.00 |

[in] For the record `CSc1cnc(Nc2ccc(C(=O)Nc3c(F)cccc3F)cc2)nc1-c1cccnc1` , what value of pIC50 is listed for Smo wild type (Homo sapiens)?
[out] 6.00 to 7.00

[in] For the record `CSc1cnc(Nc2ccc(C(=O)Nc3c(C)cccc3C)cc2)nc1-c1ccc(C#N)cc1` , what value of pIC50 is listed for Smo wild type (Homo sapiens)?
[out] 6.00 to 7.00

[in] For the record `CCOc1cnc(Nc2ccc(C(=O)Nc3cc(CN(CC)CC)ccc3C)cc2)nc1-c1ccc(OC(F)(F)F)cc1` , what value of pIC50 is listed for Smo wild type (Homo sapiens)?
[out] > 7.00

[in] For the record `CSc1cnc(Nc2ccc(C(=O)Nc3ccccc3)cc2)nc1-c1ccc(C#N)cc1` , what value of pIC50 is listed for Smo wild type (Homo sapiens)?
[out] 6.00 to 7.00
